assayed_target: T1, hErbB3.mFc (soluble dimeric human ErbB3 extracellular domain fused to mouse Fc) (human)
T1 construct: called dimeric
T1 chain: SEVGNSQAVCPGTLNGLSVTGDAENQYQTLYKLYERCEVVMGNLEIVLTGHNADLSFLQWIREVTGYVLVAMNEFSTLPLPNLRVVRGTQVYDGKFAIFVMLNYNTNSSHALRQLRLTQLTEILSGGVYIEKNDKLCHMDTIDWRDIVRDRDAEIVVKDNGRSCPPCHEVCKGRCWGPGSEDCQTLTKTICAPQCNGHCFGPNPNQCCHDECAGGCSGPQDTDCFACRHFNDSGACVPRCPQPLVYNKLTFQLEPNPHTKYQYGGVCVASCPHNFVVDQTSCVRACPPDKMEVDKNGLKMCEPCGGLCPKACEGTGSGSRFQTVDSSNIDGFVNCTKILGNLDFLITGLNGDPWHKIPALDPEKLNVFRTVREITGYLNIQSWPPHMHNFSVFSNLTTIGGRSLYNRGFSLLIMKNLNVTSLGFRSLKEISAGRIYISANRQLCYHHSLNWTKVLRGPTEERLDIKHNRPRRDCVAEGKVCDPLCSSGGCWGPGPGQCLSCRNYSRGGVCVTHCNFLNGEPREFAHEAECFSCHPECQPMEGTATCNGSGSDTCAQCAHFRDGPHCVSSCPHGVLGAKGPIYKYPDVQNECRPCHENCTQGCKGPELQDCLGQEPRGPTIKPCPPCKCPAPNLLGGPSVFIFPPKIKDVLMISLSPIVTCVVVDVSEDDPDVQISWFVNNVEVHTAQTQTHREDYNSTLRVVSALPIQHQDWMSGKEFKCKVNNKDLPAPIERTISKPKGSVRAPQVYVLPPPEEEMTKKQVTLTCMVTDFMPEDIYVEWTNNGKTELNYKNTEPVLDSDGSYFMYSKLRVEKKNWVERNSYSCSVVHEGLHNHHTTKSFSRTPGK
assay: SPR (Biacore), 25 C, mAb capture format
Can you tell me T½ for the items I'm about to list?
// return numeric value only (unit: h, not printed)

Problem: Given the binder H4H2102P (antibody, V domains shown, Fully human, human IgG4 Fc (H4H prefix)) VH: EVQLVESGGGLVQPGGSLRLSCAASGFTFSNYDIHWVRQATGKGLEWVSAIGPAGDTYYSDSVKGRFTISREDAKNSLYLQMSSLRAGDTAVYYCASEGIAVRPDDYYGMDVWGQGTTVTVSA VL: DIQLTQSPSFLSASVGDRVTITCWASQDITSYLAWYQKKPGKAPKLLIYAASTLQSGVPSRFSGSGSGTEFTLTISSLQPEDFAAYYCQQLNSYPLTFGGGTKVDIKR , what is its reported T½?
Solution: 78.7

Problem: Another binder: H4H2111P (antibody, V domains shown, Fully human, human IgG4 Fc (H4H prefix)) VH: QVQLVESGGGVVQPGRSLRLSCAASGFTFNNYGMHWVRQAPGKGLAWVAVMWYSESHKYYADSVKGRFTISRDNSKNTLYLEMNSLRVEDTAIYYCARDLGDPDAFDIWGQGTMVTVSS VL: DIQLTQSPSFLSASVGDRVTITCWASQGISSYLAWYQQKPGKAPKLLIYGASTLQSGVPSRFSGSGSGTEFTLTISSLQPEDFATYYCQQLNSYPLTFGGGTKVEIKR
Solution: 20.4

Problem: Another binder: H4H2154P (antibody, V domains shown, Fully human, human IgG4 Fc (H4H prefix)) VH: QVQLQESGPGLINPSQTLSVTCTVSGGSISSGGYYWTWIRQHPGKGLEWIGYISYSGNTNYNPSLKSRVTISVDTAKNQFSLKLSSVTAADTAVYFCARDSDVDTAMVDGIDIWGQGTMVTVSS VL: DIQMTQSPSSVSASVGDRVTITCRASQDISSWLAWYQQKPGRAPKLLIYTASSLQSGVPSRFSGSGSGTDFTLTISSLQPEDFATYFCQQANSFPFTFGPGTKVDIKR
Solution: 182

Problem: Another binder: H4H2138P (antibody, V domains shown, Fully human, human IgG4 Fc (H4H prefix)) VH: QVQLQESGPGLVKPSQTLSLTCTVSGGSINSGGYYWSWIRQHPGKGLEWIGYISYSGNTNYNPSLKSRVTISVDTSKNQFSLTLTSVTAADTAVYYCARDSDVDTGLVDGFDVWGQGTMVTVSS VL: DIVMTQSPSSVSASVGDRVTITCRASQGVSSWLAWYQQKPGKAPKLLIYTTSSLQSGVPSRFSGSGSGTDFTLTISSLQPEDFATYYCQQSNSFPFTFGPGTKVEIK
Solution: 32.5

Problem: Another binder: H4H2084P (antibody, V domains shown, Fully human, human IgG4 Fc (H4H prefix)) VH: QVQLVESGGGVVQSGKSLRLSCVASGFTFSNYGMHWVRQTPGKGLEWVARIWFDGTNKYYTDSVKGRFTLSRDSSKNTLYLQMNSLRAEDTAVYFCAREESLELDHYVMDVWGQGTTVTVSS VL: AIQMTQSPSSLSASVGDRVTITCRASQDIRDDLGWFQQKPGKAPNLLIYAASSLQSGVPSRFSGSGSGTDFTLTISSLQPEDFATYYCLQDYNYPLTFGGGTKVEIKR
Solution: 44.9
